These data points were gathered from paper PMC6938011.

System: P. falciparum 3D7 strain
Assay details: SYBR Green I inhibition assay for the asexual stages of P. falciparum
Assay type: cell-based, Plasmodium falciparum
Test settings: 72 h, read-out: IC50^Pf Average (confidence interval-95%)
Assay readout: IC50 (nM)

Past entries and their recorded results:
CCn1c(CN2CCN(Cc3ccccc3)CC2)nc2cc(NC(=O)c3cccs3)ccc21 [Compound 5] :: 250
CCOC(=O)C1=C(C)N=c2sc(=Cc3cc(Cl)ccc3O)c(=O)n2C1c1ccc(OC)cc1 (stereo not drawn) [Compound 2] :: 400
O=C1c2ccccc2-c2nnc(-c3ccc(Br)cc3)cc21 [Compound 6] :: 1200
O=[N+]([O-])c1ccc(C=NNc2nc3ccccc3[nH]2)cc1 [Compound 4] :: 440
Cc1cc(NC(=O)c2ccc(-c3ccccc3)cc2)no1 [Compound 10] :: 850

[A] Brc1ccc(Nc2nc3ccccc3nc2Nc2ccc(Br)cc2)cc1 [Compound 3]
[B] Fc1ccc2[nH]c3c(NCCCN4CCOCC4)ncnc3c2c1 [Compound 11]
[C] O=C(Nc1ccc(C23CC4CC(CC(c5ccccc5)(C4)C2)C3)cc1)c1cccs1 [Compound 7]
Enquiry: Exam item: list the entries in increasing order of IC50. Response format: the labels, sorted as the prompt asks.
Return: A, C, B

----------
Test system: Hepatocarcinoma cells (HepG2)
Assay details: Cytotoxicity evaluation, neutral red assay
Assay type: cell-based, human
Test settings: HepG2, 72 h, read-out: IC50^HepG2, NR Average (confidence interval-95%)
Assay readout: IC50

Past entries and their recorded results:
O=C1c2ccccc2-c2nnc(-c3ccc(Br)cc3)cc21 [Compound 6] :: > 12.5 µM
O=C(Nc1ccc(C23CC4CC(CC(c5ccccc5)(C4)C2)C3)cc1)c1cccs1 [Compound 7] :: > 25 µM

Let us move to another entry and its IC50.
Enquiry: For the compound Brc1ccc(Nc2nc3ccccc3nc2Nc2ccc(Br)cc2)cc1 [Compound 3] , report IC50.
Return: > 6.25 µM

----------
Documented Isobologram data, Additive: fraction of FIC50 pairs across a set of compounds
System: P. falciparum
Assay details: Combination assays, isobologram analysis (FIC50 pairs)
Format: cell-based, Plasmodium falciparum
Test settings: combination with artesunate
Please state the figure in %; there is no need to write the unit.

Past entries and their recorded results:
Brc1ccc(Nc2nc3ccccc3nc2Nc2ccc(Br)cc2)cc1 :: 38
O=[N+]([O-])c1ccc(C=NNc2nc3ccccc3[nH]2)cc1 :: 8
O=C(Nc1ccc(C23CC4CC(CC(c5ccccc5)(C4)C2)C3)cc1)c1cccs1 :: 22
O=C1c2ccccc2-c2nnc(-c3ccc(Br)cc3)cc21 :: 15

Enquiry: For the compound CN1CCN(c2ccc(Nc3c4ccccc4nc4ccccc34)cc2)CC1 , report Isobologram data, Additive: fraction of FIC50 pairs.
Return: 8

Enquiry: For the compound C[C@H]1[C@H](OC(=O)CCC(=O)O)O[C@@H]2O[C@@]3(C)CC[C@H]4[C@H](C)CC[C@@H]1[C@@]24OO3 [Artesunate, reference compound] , report Isobologram data, Additive: fraction of FIC50 pairs.
Return: 100

Enquiry: For the compound CCOC(=O)C1=C(C)N=c2sc(=Cc3cc(Cl)ccc3O)c(=O)n2C1c1ccc(OC)cc1 (stereo not drawn) , report Isobologram data, Additive: fraction of FIC50 pairs.
Return: 92

Enquiry: For the compound Cc1cc(NC(=O)c2ccc(-c3ccccc3)cc2)no1 , report Isobologram data, Additive: fraction of FIC50 pairs.
Return: 38

Enquiry: For the compound CCn1c(CN2CCN(Cc3ccccc3)CC2)nc2cc(NC(=O)c3cccs3)ccc21 , report Isobologram data, Additive: fraction of FIC50 pairs.
Return: 15
